B1: SAM and SH3 domain-containing protein 1, residues 630 to 700; numbered along this chain, O94885 (parent)
chain: GRPPQPKSVEDLLDRINLKEHMPTFLFNGYEDLDTFKLLEEEDLDELNIRDPEHRAVLLTAVELLQEYDSN

# Variants of: B1
# procedure-details: abundance fitness (aPCA) (normalised: wild type 0, dead -1); higher = more abundant; growth selection in yeast, the domain comes from the species named
# run-parameters: Homo sapiens
Decision: abundance fitness >= -0.7 yields 1, all other cases yield 0.

## Input Test whether the variant `R55L` records abundance fitness of -0.7 or higher.
## Output 0

## Input Check `M22W` too.
## Output 1

These entries and their values trace back to the Human Domainome abundance scans (Beltran et al. 2025).
